assay: Liver Microsome Stability Assay (monkey); conditions: monkey liver microsomes, with NADPH, 1.0 uM compound
assay_metric: Liver Microsome Stability (Multiple Species): Monkey - % Remaining after 30 min w/NADPH (%)

Here are 2 molecules together with their reported answers.
Ask: // Liver Microsome Stability (Multiple Species): Monkey - % Remaining after 30 min w/NADPH lookup, key: CC(=O)N1CCC(Oc2ccc(N3CCC[C@@H]3c3csc(NC(=O)c4cccn4Cc4ccnc(F)c4)n3)cc2)C1 (stereo partly shown)
Reply: 0.78

Ask: Then what about the molecule `O=C(Nc1nc([C@H]2CCCN2c2ccc(OC3CCSCC3)cc2)cs1)c1cccn1Cc1ccnc(F)c1` ?
Reply: 2.6

1: O=C(Nc1nc([C@H]2CCCN2c2ccc(OC3CN(C(=O)C4CC4)C3)cc2)cs1)c1cccn1Cc1ccnc(F)c1
2: CC(C)c1ccc(N2CCC[C@@H]2c2csc(NC(=O)c3cccn3Cc3ccncc3)n2)cc1
Ask: // which entry has the larger Liver Microsome Stability (Multiple Species): Monkey - % Remaining after 30 min w/NADPH value, 1 or 2 ? Respond using the label that marks the chosen record.
Reply: 2
(2: 29.9%, 1: 2.02%)

a: CC(CC#N)Cn1cccc1C(=O)Nc1nc([C@H]2CCCN2c2ccccc2)cs1 (stereo partly shown)
b: CN(C)C(=O)CCCn1cccc1C(=O)Nc1nc([C@H]2CCCN2c2ccccc2)cs1
Ask: Pick one, a or b : lowest reported Liver Microsome Stability (Multiple Species): Monkey - % Remaining after 30 min w/NADPH. Reply briefly: the label of your chosen item.
Reply: b

I: CC(C)c1cc(/C=C/c2csc(NC(=O)c3cccn3Cc3ccnc(F)c3)n2)no1
II: N#CCCCCn1cccc1C(=O)Nc1nc([C@H]2CCCN2c2ccccc2)cs1
Ask: Determine, for I and II , which has the greater value of Liver Microsome Stability (Multiple Species): Monkey - % Remaining after 30 min w/NADPH. Lab note: record the label of whichever item you select.
Reply: I
(I: 0.54%, II: 0.35%)

A: CC(=O)Nc1ccc(N2CCC[C@@H]2c2csc(NC(=O)c3cccn3Cc3ccnc(F)c3)n2)c(F)c1
B: O=C(Nc1ccc(N2CCC[C@@H]2c2csc(NC(=O)c3cccn3Cc3ccnc(F)c3)n2)cc1)OC1CNC1
Ask: Hi, I'm comparing A with B and wondering which one has the bigger number for Liver Microsome Stability (Multiple Species): Monkey - % Remaining after 30 min w/NADPH. Any idea? State your choice using its label.
Reply: B

a: N#CCC1(Cn2cccc2C(=O)Nc2nc([C@H]3CCCN3c3ccccc3)cs2)CCC1
b: CC(=O)N1CCC(Cc2ccc(N3CCC[C@@H]3c3csc(NC(=O)c4cccn4Cc4ccnc(F)c4)n3)cc2)CC1
c: O=C(Nc1nc([C@@H]2CCCN2c2ccc(C(F)(F)F)cc2)cs1)c1cccn1Cc1ccnc(F)c1
d: Nc1ccc(N2CCC[C@@H]2c2csc(NC(=O)c3cccn3Cc3ccncc3)n2)cc1
Ask: # rank by Liver Microsome Stability (Multiple Species): Monkey - % Remaining after 30 min w/NADPH, ascending (min first) Give the labels in the order specified.
Reply: b, a, d, c
(b: 0.18%, a: 0.38%, d: 2.72%, c: 29.6%)

1: O=C(Nc1nc([C@H]2CCCN2c2ccccc2)cs1)c1cccn1Cc1ccc(F)cc1
2: O=C(Nc1nc(CC2CCCCO2)cs1)c1cccn1Cc1ccncc1 (stereo not shown)
3: CC(=O)N1CCCC(c2ccc(N3CCC[C@@H]3c3csc(NC(=O)c4cccn4Cc4ccncc4)n3)cc2)C1 (stereo partly shown)
Ask: Task for the reader: rank each entry by its Liver Microsome Stability (Multiple Species): Monkey - % Remaining after 30 min w/NADPH, from the minimum upward. Use the labels to give the ranking in the order requested.
Reply: 3, 2, 1

a: CC(=O)Nc1ccc(N2CCC[C@@H]2c2csc(NC(=O)c3cccn3C[C@@H](C)CC#N)n2)cc1
b: CC(C)c1nc(/C=C/c2csc(NC(=O)c3cccn3Cc3ccnc(F)c3)n2)cn1C
c: CC(C)n1cnc(/C=C/c2csc(NC(=O)c3cccn3Cc3cccnc3)n2)c1
Ask: Please order the records by their reported Liver Microsome Stability (Multiple Species): Monkey - % Remaining after 30 min w/NADPH, lowest number first. Provide your answer as the labels ordered per the instruction.
Reply: c, b, a

I: O=C(Nc1nc([C@@H]2CCN(c3ccccn3)C2)cs1)c1cccn1Cc1ccncc1
II: CC(C)n1ccc(/C=C/c2csc(NC(=O)c3cccn3Cc3ccnc(F)c3)n2)n1
III: CN1CC(OC(=O)Nc2ccc(N3CCC[C@@H]3c3csc(NC(=O)c4cccn4Cc4ccnc(F)c4)n3)cc2)C1
IV: Cc1cccc2nc(/C=C/c3csc(NC(=O)c4cccn4Cc4ccnc(F)c4)n3)cn12
V: CN1CCC(Oc2ccc(N3CCC[C@@H]3c3csc(NC(=O)c4cccn4Cc4ccncc4)n3)cc2)CC1
Ask: Order the records by Liver Microsome Stability (Multiple Species): Monkey - % Remaining after 30 min w/NADPH, with each subsequent value no larger than the one before. List labels; respect the requested ordering.
Reply: III, V, I, IV, II
